Tested system: Insulin-like growth factor 2 mRNA-binding protein 1 (Homo sapiens)
Sequence (Q9NZI8 whole entry, the tested form may be a part): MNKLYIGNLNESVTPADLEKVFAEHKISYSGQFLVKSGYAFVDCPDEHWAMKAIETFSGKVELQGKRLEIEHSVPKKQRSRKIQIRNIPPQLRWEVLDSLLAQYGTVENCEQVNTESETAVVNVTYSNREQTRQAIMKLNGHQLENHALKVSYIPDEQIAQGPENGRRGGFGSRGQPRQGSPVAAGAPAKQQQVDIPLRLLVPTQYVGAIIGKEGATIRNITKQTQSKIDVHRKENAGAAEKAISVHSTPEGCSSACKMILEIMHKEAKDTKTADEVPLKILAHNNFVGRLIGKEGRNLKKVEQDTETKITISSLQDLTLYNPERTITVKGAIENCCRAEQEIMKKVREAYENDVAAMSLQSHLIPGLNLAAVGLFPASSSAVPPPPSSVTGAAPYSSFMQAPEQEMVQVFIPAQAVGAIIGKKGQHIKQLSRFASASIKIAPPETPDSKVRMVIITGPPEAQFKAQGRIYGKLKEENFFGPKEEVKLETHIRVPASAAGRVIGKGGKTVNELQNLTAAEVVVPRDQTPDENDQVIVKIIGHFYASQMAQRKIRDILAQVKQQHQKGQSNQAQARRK
Protocol notes: Binding affinity to recombinant full-length human IGF2BP1 KH34 domain by MST assay
Experimental readout: Kd (nM)
State just the number; it will be interpreted in nM.

The reported value for "O=C(c1ccc(Cn2cc(CO)c3ccccc32)cc1)N1CCN(c2ccc3c(c2)OCO3)CC1" in terms of Kd is 840

* * *

Tested system: UniProt:Q9NZI8
Protocol notes: Inhibition of human IGF2BP1 transfected in RKO cells incubated for 24 hrs by split-luciferase assay
Assay type: cell-based
Calls of active or inactive are those of the source. No cut-off for these calls is given here.
Log the outcome using a class from True = active, False = inactive

Compound: Cc1ccc(N2CCN(C(=O)c3ccc(Cn4cc(CO)c5ccccc54)cc3)CC2)cc1
Label: True
//
Compound: O=C(c1ccc(Cn2cnnn2)cc1)N1CCCC(Nc2ccc3c(c2)OCO3)C1 (stereo not given)
Label: True

Input line: Name the outcome recorded for "O=C(c1ccc(Cn2cnc([N+](=O)[O-])n2)cc1)N1CCN(c2ccc3c(c2)OCO3)CC1" in the assay.
Output line: False

Input line: I would be grateful if you could indicate the recorded call for "Cc1ccc(N2CCN(C(=O)c3ccc(CNC(N)=S)cc3)CC2)cc1" .
Output line: False

Input line: Tell me the assay call for O=C(c1ccc(Cn2cncn2)cc1)N1CCCC(Nc2ccc3c(c2)OCO3)C1 (stereo not given) please.
Output line: True

Input line: Hi, do you know how "Cc1ccc(N2CCN(C(=O)c3ccc(Cn4cnnn4)cc3)CC2)cc1" came out in this test?
Output line: False

Input line: Could you please tell me the result logged for "Cc1ccc(N2CCN(C(=O)c3ccc(Cn4cnc([N+](=O)[O-])n4)cc3)CC2)cc1" in this assay?
Output line: True
